- tested.system: human ether-à-go-go-related gene (hERG) potassium channel (human, UniProt Q12809)
- Sequence (Q12809 whole entry, looked up): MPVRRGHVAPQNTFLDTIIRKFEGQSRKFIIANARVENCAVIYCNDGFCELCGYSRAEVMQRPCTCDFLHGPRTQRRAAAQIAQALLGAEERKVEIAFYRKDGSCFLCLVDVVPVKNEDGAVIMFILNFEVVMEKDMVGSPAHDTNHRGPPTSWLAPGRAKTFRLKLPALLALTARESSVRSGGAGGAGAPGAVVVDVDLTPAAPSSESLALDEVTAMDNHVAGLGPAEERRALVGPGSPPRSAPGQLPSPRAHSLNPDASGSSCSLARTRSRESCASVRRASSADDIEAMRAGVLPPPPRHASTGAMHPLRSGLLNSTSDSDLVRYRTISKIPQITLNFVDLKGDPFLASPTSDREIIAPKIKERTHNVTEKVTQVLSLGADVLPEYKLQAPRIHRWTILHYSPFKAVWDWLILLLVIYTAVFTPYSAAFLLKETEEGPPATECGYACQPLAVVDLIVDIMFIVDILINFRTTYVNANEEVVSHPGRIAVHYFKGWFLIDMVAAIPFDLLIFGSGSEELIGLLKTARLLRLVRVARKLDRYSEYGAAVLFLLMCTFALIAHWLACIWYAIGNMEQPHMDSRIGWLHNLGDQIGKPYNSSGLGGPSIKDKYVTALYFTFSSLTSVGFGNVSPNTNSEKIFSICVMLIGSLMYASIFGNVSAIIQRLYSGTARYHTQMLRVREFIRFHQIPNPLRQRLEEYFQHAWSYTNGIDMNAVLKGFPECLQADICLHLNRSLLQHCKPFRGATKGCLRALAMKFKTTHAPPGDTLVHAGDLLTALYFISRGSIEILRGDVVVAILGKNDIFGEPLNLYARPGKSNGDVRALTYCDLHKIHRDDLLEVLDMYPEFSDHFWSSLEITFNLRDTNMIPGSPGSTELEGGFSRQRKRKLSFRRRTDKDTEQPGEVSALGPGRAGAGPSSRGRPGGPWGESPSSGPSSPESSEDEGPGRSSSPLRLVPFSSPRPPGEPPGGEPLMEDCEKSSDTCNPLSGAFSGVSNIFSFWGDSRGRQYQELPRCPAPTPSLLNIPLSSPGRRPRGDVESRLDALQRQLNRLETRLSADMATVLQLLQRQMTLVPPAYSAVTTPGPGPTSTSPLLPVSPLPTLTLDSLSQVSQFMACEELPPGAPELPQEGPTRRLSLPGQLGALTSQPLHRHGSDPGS
- test.method.notes: primary screen, population patch clamp on CHO cells stably expressing hERG; higher = less effect of the substance
In all, about 310,000 compounds went through this assay and about 14,000 (4.5%) showed an effect of 50% or more. Effects have a minus sign here. This is one part of a sample in which strong results are shown more often than they occur.
Record form. Attribute: hERG current change (%, negative = inhibition) at 10uM. Fill in for each entry.
One number for each entry, in %.

Batch of 6 compounds: report hERG current change (%, negative = inhibition) at 10uM for each.
1. COc1ccc(NC(=O)CN(c2ccc(OC)c(Cl)c2)S(=O)(=O)c2ccccc2)c(OC)c1
2. c1ccc(CNCc2ccc3c(c2)OCO3)nc1
3. COc1ccc(CCN(C)C(=S)NC(=O)c2ccc(F)cc2Cl)cc1OC
4. O=C(c1ccc([N+](=O)[O-])cc1)N1CCSC1c1ccc(Cl)cc1 (stereo not drawn)
5. O=C(c1ccc([N+](=O)[O-])cc1)N1CCSC1c1cccc(Cl)c1 (stereo not drawn)
6. CCOC(=O)N1CCC(NC(=O)CS(=O)(=O)Cc2nc(-c3cccc(OC)c3)oc2C)CC1

output:
1: 8.77; 2: 11.2; 3: -20.4; 4: -76.9; 5: -69.3; 6: -54.2

----------
Record form. Attribute: hERG current change (%, negative = inhibition) at 10uM. Fill in for each entry.
- tested.system: human ether-à-go-go-related gene (hERG) potassium channel (human, UniProt Q12809)
- test.method.notes: primary screen, population patch clamp on CHO cells stably expressing hERG; higher = less effect of the substance
The campaign covered roughly 310,000 compounds. About 14,000 (4.5%) showed an effect of 50% or more. Effects have a minus sign here. The entries come from a sample that favours strong results as a whole.
Answers are plain numbers, in %.

Solved entries (count: 9):
>  <molecule>
CC1=C(c2ccccc2)[N+](=O)C2(CCCCC2)N1[O-]

>  <tested.system>
human ether-à-go-go-related gene (hERG) potassium channel (human, UniProt Q12809)

>  <unit.name>
%

>  <readout.value>
-4.49

$$$$
>  <molecule>
CC(C)N(Cc1ccccc1)C(=O)C1CCCN(c2ncnc3c2nc2n3CCCCC2)C1 (stereo not shown)

>  <tested.system>
human ether-à-go-go-related gene (hERG) potassium channel (human, UniProt Q12809)

>  <unit.name>
%

>  <readout.value>
-44.3

$$$$
>  <molecule>
Cc1nc2ccccc2n1-c1nc(-c2ccco2)cc(C(F)(F)F)n1

>  <tested.system>
human ether-à-go-go-related gene (hERG) potassium channel (human, UniProt Q12809)

>  <unit.name>
%

>  <readout.value>
5.46

$$$$
>  <molecule>
CCn1cc(CN2CCc3c([nH]c4ccccc34)C2c2cccc(OC)c2)c(C)n1 (stereo not shown)

>  <tested.system>
human ether-à-go-go-related gene (hERG) potassium channel (human, UniProt Q12809)

>  <unit.name>
%

>  <readout.value>
-57.3

$$$$
>  <molecule>
COc1cccc(C2c3[nH]c4ccccc4c3CCN2Cc2cnn(C)c2)c1 (stereo not shown)

>  <tested.system>
human ether-à-go-go-related gene (hERG) potassium channel (human, UniProt Q12809)

>  <unit.name>
%

>  <readout.value>
-69.6

$$$$
>  <molecule>
COc1cc(C2c3[nH]c4ccccc4c3CCN2Cc2cn(C)nc2C)ccc1F (stereo not shown)

>  <tested.system>
human ether-à-go-go-related gene (hERG) potassium channel (human, UniProt Q12809);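 note: peak tail current of the secondary pulse compared with the same well before compound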

>  <unit.name>
%

>  <readout.value>
1.02

$$$$
>  <molecule>
COc1cc(S(=O)(=O)N2CCCCC2)ccc1NC(=O)c1ccncc1

>  <tested.system>
human ether-à-go-go-related gene (hERG) potassium channel (human, UniProt Q12809);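 note: peak tail current of the secondary pulse compared with the same well before compound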

>  <unit.name>
%

>  <readout.value>
-30.8

$$$$
>  <molecule>
COC(=O)[C@@H]1CCCN1C(=O)CCc1nnc(C2CCCCC2)o1

>  <tested.system>
human ether-à-go-go-related gene (hERG) potassium channel (human, UniProt Q12809);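 note: peak tail current of the secondary pulse compared with the same well before compound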

>  <unit.name>
%

>  <readout.value>
6.94

$$$$
>  <molecule>
COC(=O)c1c(NC(=O)/C=C/c2ccco2)sc2c1CCC2

>  <tested.system>
human ether-à-go-go-related gene (hERG) potassium channel (human, UniProt Q12809);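 note: peak tail current of the secondary pulse compared with the same well before compound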

>  <unit.name>
%

>  <readout.value>
17.6

$$$$

Please examine the following record next.
input: Respond only with hERG current change (%, negative = inhibition) at 10uM recorded for COc1cccc(C2c3[nH]c4ccccc4c3C[C@H]3C(=O)N(CCCCCO)CC(=O)N23)c1 (stereo partly shown)
output: -64.9
